# TGT: Peroxisome proliferator-activated receptor gamma (Homo sapiens)
# ASSAY OVERVIEW: ATG_PPARg_TRANS: Attagene TRANS-FACTORIAL HepG2 Assay for human Peroxisome Proliferator-activated Receptor-gamma (PPARg) (AID 2283007)
# Protocol: ATG_TRANS is a cell-based, multiplexed-readout assay that uses HepG2, a human liver cell line, with measurements taken at 24 hours after chemical dosing in a 24-well plate.ATG_PPARg_TRANS is one of 30 assay component(s) measured or calculated from the ATG_TRANS assay. […] This assay endpoint, ATG_PPARg_TRANS, was analyzed in the positive analysis fitting direction relative to DMSO as the negative control and baseline of activity. […]
Records with an inconclusive call do not appear. Activity calls are given as the source filed them. The calls were made as follows: active = hit-call score of the fitted dose curve at least 0.9, where 1 is the maximum; inconclusive = response in the unintended direction; inactive = score below 0.9.
Please state which outcome applies, choosing from label 1 (active), label 0 (inactive)

Q: Test call for this compound, please: CC(C)(C)c1ccccc1O
Ans: label 0

Q: Dear all, I need the recorded test outcome for C=CCOC(F)(C(F)(F)F)C(F)(F)F , thank you.
Ans: label 0

Q: Each compound tested received a call. Report the one for N#CCCC(Br)(C#N)CBr (stereo not drawn) .
Ans: label 0

Q: Which outcome was assigned to C=C(C)[C@@H]1CC=C(C=O)CC1 in this test?
Ans: label 1

###

# TGT: Myc proto-oncogene protein (Homo sapiens) (UniProt P01106)
# Sequence (P01106 whole entry, looked up): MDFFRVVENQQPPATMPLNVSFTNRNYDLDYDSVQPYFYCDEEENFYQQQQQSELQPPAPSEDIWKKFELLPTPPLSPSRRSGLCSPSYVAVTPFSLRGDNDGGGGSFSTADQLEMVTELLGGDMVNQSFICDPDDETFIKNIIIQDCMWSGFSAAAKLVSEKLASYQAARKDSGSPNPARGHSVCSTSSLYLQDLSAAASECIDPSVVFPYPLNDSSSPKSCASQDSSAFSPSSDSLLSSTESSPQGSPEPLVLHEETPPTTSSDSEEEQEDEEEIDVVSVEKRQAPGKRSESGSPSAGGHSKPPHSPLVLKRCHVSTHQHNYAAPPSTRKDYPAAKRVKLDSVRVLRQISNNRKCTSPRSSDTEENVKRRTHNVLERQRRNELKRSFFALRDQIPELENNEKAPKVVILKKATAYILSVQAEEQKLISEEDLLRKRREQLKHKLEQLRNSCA
# ASSAY OVERVIEW: ATG_Myc_CIS: Attagene CIS-FACTORIAL HepG2 Assay for human Myelocytomatosis (Myc) Proto-Oncogene Transcription Factor (AID 2282990)
# CONDITION DETAILS: HepG2, Attagene cis-reporter transcription factor activity; actives raise or lower the signal
Calls of active or inactive are those of the source. Rule for the calls: active = hit-call score of the fitted dose curve at least 0.9, where 1 is the maximum; inactive = score below 0.9.
Respond only with the outcome that fits, drawn from active, inactive

                              compound  group_label
0  BrCC(Br)c1ccccc1 (stereo not given)     inactive
1  CCCCOC(=O)COC(=O)c1ccccc1C(=O)OCCCC     inactive
2          O=c1[nH]c(=O)n(Cl)c(=O)n1Cl     inactive

Q: Could you check what this test reported for CC1(C)COP(Oc2ccccc2)OC1 ?
Ans: inactive

Q: // return assay outcome for C[As+](C)(C)CC(=O)[O-]
Ans: inactive

Q: What did this assay record as the result for CCCCCCCCCCCCOS(=O)(=O)O ?
Ans: inactive

Q: What was the test verdict on O=C1c2ccccc2C(=O)C1C(=O)C(c1ccccc1)c1ccc(Cl)cc1 (stereo not given) ?
Ans: active

Q: I would be grateful if you could indicate the recorded call for O=C(NC(=O)c1c(F)cccc1F)Nc1ccc(Cl)cc1 .
Ans: inactive

Q: Hi team, can someone confirm the assay call for Cc1ccc2nc3sc(=O)sc3nc2c1 ?
Ans: active

Q: Would you mind telling me which call this test gave O=S(=O)(Oc1ccc(Cl)cc1)c1ccc(Cl)cc1 ?
Ans: inactive

###

# Read-out: E-selectin (Homo sapiens)
# ASSAY OVERVIEW: BSK_SAg_Eselectin: BioMAP Diversity Plus: SAg Assay for Eselectin Biomarker Activity (AID 2283091)
# CONDITION DETAILS: primary human HUVEC with PBMC; actives raise or lower the signal
Calls of active or inactive are those of the source. How the source made its calls: active means hit-call score of the fitted dose curve at least 0.9, where 1 is the maximum; inactive means score below 0.9.
READOUT: AC50

Study these solved cases before continuing.
                                   compound             result
0  CC(C)(C)c1cc([N+](=O)[O-])cc(C(C)(C)C)c1O  0.219 µM (active)
1           O=S(=O)(C(Cl)(Cl)Cl)C(Cl)(Cl)Cl   3.13 µM (active)
2  CC1(C)[C@H](C(=O)O[C@H](C#N)c2cccc(Oc3ccccc3)c2)[C@@H]1/C=C(\Cl)C(F)(F)F           inactive
3  CC(C)=CC1C(C(=O)OCc2cccc(Oc3ccccc3)c2)C1(C)C (configuration not stated)   6.45 µM (active)
4  N#CCCC(Br)(C#N)CBr (configuration not stated)     20 µM (active)
5  OC(Cc1ccccc1Cl)(Cn1cncn1)C1(Cl)CC1 (configuration not stated)           inactive

The recorded AC50 for Oc1cc(Cl)c(Cl)cc1Cl is 26.5 µM (active)
